# Tested on: human PKK mRNA
# assayDetails: Antisense inhibition of human PKK mRNA in HepaRG cells, 1,000 nM, MOE/deoxy/cEt oligonucleotides (Example 3)
# Format: cell-based
# condition: HepaRG cells, electroporation with 1,000 nM antisense oligonucleotide, approx. 24 hours, PKK mRNA by RT-PCR (RTS3454), relative to untreated control cells; Table 25 experiment
Strand notation (5' to 3'): a small letter for the sugar, then the base; units joined by * are phosphorothioate-linked, units joined directly phosphodiester-linked; [ ] holds rarer units or linkages, { } end groups; capitals alone tell only the bases. e = 2'-O-(2-methoxyethyl) (MOE); k = constrained ethyl (cEt); [5mC] = 5-methylcytosine; d = 2'-deoxy (DNA)
Can you tell me % inhibition for the items I'm about to list?
Give bare numbers, in %.

>  <substance>
548221 (eA*e[5mC]*kT*d[5mC]*d[5mC]*dA*dG*d[5mC]*dA*dG*dA*dA*dA*kT*k[5mC]*e[5mC]; antisense) [compound 548221]

>  <subjectOfTest>
human PKK mRNA

>  <measurementUnit>
%

>  <% inhibition>
49

$$$$
>  <substance>
548181 (eG*eT*k[5mC]*dA*dT*dG*dG*dA*dG*dA*dT*d[5mC]*dT*k[5mC]*kA*eG; antisense) [compound 548181]

>  <subjectOfTest>
human PKK mRNA

>  <measurementUnit>
%

>  <% inhibition>
55

$$$$

// input: 4 substances below; output: % inhibition for each
1. 548201 (eT*eG*kT*dT*d[5mC]*dT*dA*dA*dT*dG*dT*dG*dG*k[5mC]*kA*e[5mC]; antisense) [compound 548201]
2. 548176 (eG*eA*kT*d[5mC]*dT*d[5mC]*dA*dG*dT*dT*dG*d[5mC]*dG*kA*k[5mC]*e[5mC]; antisense) [compound 548176]
3. 548164 (eG*eA*k[5mC]*d[5mC]*dT*d[5mC]*dG*d[5mC]*dA*dT*dT*dG*dT*k[5mC]*kA*eG; antisense) [compound 548164]
4. 548204 (eT*e[5mC]*kT*dG*dA*d[5mC]*dT*dA*dG*dT*dG*dA*dA*kT*kG*eG; antisense) [compound 548204]

Given back:
[67, 38, 40, 25]

---

# System: human PKK mRNA
# assayDetails: Antisense inhibition of human PKK mRNA in HepaRG cells, 1,000 nM, MOE/deoxy/cEt oligonucleotides (Example 3)
# Type: cell-based
# condition: Table 21 experiment; HepaRG cells, electroporation with 1,000 nM antisense oligonucleotide, approx. 24 hours; PKK mRNA by RT-PCR (RTS3454), relative to untreated control cells
Strand notation (5' to 3'): a small letter for the sugar, then the base; units joined by * are phosphorothioate-linked, units joined directly phosphodiester-linked; [ ] holds rarer units or linkages, { } end groups; capitals alone tell only the bases. e = 2'-O-(2-methoxyethyl) (MOE); k = constrained ethyl (cEt); [5mC] = 5-methylcytosine; d = 2'-deoxy (DNA)
assayReadout: % inhibition (%)
Numbers only, in %.

Sample records with % inhibition:
>  <substance>
547839 (eG*e[5mC]*kT*dT*d[5mC]*dA*dA*dG*dG*dA*dA*dT*dG*kT*k[5mC]*e[5mC]; antisense) [compound 547839]

>  <% inhibition, %>
35

$$$$
>  <substance>
547791 (antisense eA*e[5mC]*kT*dG*dT*dA*dG*d[5mC]*dA*dA*dA*d[5mC]*dA*kA*kG*eG) [compound 547791]

>  <% inhibition, %>
49

$$$$
>  <substance>
547837 (eT*eG*kT*d[5mC]*d[5mC]*dA*dG*dA*dA*dA*d[5mC]*dT*dG*k[5mC]*kA*e[5mC]; antisense) [compound 547837]

>  <% inhibition, %>
51

$$$$
>  <substance>
547757 (antisense eG*eA*kG*dT*d[5mC]*dT*d[5mC]*dT*dT*dG*dT*d[5mC]*dA*k[5mC]*kT*eT) [compound 547757]

>  <% inhibition, %>
69

$$$$
>  <substance>
547808 (e[5mC]*eA*kT*d[5mC]*dT*dG*dG*d[5mC]*dA*dG*dT*dA*dT*kT*kG*eG; antisense) [compound 547808]

>  <% inhibition, %>
56

$$$$

As a next step, examine the substance that follows.
Asked: # lookup: % inhibition of 547759 (antisense eT*eG*kA*dG*dT*d[5mC]*dT*d[5mC]*dT*dT*dG*dT*d[5mC]*kA*k[5mC]*eT) [compound 547759]
Given back: 73
